These measurements were taken from patent EP4667463A1.

- ASSAY REMARKS: in vitro
- ASSAY CONDITIONS: human, microsomes
Each entry below carries its recorded CLint scaled at 1 h, 1 µM.
All answers are understood in mL/min/kg, so give the number only.

> print(dat)
                                   molecule              quantity.name  readout.value
1  O=C1CCC(N2Cc3cc(CNC(=O)Nc4ccc(CCCOC5CNC5)c(Cl)c4)ccc3C2=O)C(=O)N1 (centres unmarked) [Compound B63]  CLint scaled at 1 h, 1 µM          0.189

Next molecule, please.
Inquiry: I would be grateful if you could share the reported CLint scaled at 1 h, 1 µM for O=C1CCC(N2Cc3cc(CNC(=O)Nc4ccc(CCCOC5CCNCC5)c(Cl)c4)ccc3C2=O)C(=O)N1 (centres unmarked) [Compound B61] .
Reply text: 5.27
